Where these numbers come from: ChEMBL document CHEMBL1129987

system: Human immunodeficiency virus 1; assay: Antiviral activity in HIV-1 infected H9 cells; format: functional; settings: Human immunodeficiency virus 1, H9; read-out: ED50 (the source's name)
Listed below: EC50 values for each entry.
Kindly answer with a numeric value in µM, unit omitted.

1. O=c1c2c(oc(O)c1C(c1cccc(NS(=O)(=O)c3ccccc3)c1)C1CC1)CCCCCC2 (stereo not given) : 5.5
2. Cc1cccc(S(=O)(=O)Nc2cccc(C(c3c(O)c4c(oc3=O)CCCCCC4)C3CC3)c2)c1 (stereo not given) : 4
3. O=c1c2c(oc(O)c1C(c1cccc(NS(=O)(=O)c3ncccn3)c1)C1CC1)CCCCCC2 (stereo not given) : 1.7

Q. State the recorded EC50 for this entry: O=c1c2c(oc(O)c1C(c1cccc(NS(=O)(=O)c3ccc(Br)cc3)c1)C1CC1)CCCCCC2 (stereo not given)
A. 3.2

Q. State the recorded EC50 for this entry: CC(C)CC(c1cccc(NS(=O)(=O)c2cn(C)cn2)c1)c1c(O)c2c(oc1=O)CCCCCC2 (stereo not given)
A. 1.3

###

assay: Half-life was measured after intravenous administration of 1.8 mg/kg of drug in male Beagle dogs; type: ADME, organism-based, Canis lupus familiaris; design: dose 1.8 mg/kg, route intravenous; settings: dog, in vivo
reported metric: half-life (min)
Kindly answer with a numeric value in min, unit omitted.

Q. State the recorded half-life for this entry: O=c1c2c(oc(O)c1C(c1cccc(NS(=O)(=O)c3ccc(F)cc3)c1)C1CC1)CCCCCC2 (stereo unspecified)
A. 34.2

###

assay: Apparent volume of distribution was obtained after intravenous administration of 5.1 mg/kg of drug in male Dawley rats; type: ADME, organism-based; set-up: dose 5.1 mg/kg, route intravenous; conditions: Sprague-Dawley, rat, in vivo, read-out: Vss
reported metric: Vd (L/kg)
Kindly answer with a numeric value in L/kg, unit omitted.

Q. State the recorded Vd for this entry: N#Cc1ccc(S(=O)(=O)Nc2cccc([C@@H](c3c(O)oc4c(c3=O)CCCCCC4)C3CC3)c2)cc1
A. 0.12

###

test system: Human immunodeficiency virus 1; assay: Antiviral activity in HIV-1 infected H9 cells; assay type: functional; details: Human immunodeficiency virus 1, H9; read-out: ED50 (the source's name)
Returns: string. Value is fulfilled if measured EC50 is below 3 µM, and not fulfilled if it is greater than or equal to it.

1) O=c1c2c(oc(O)c1[C@@H](c1cccc(NS(=O)(=O)c3ccc(F)cc3)c1)C1CC1)CCCCCC2 : not fulfilled
2) CCCCC(c1cccc(NS(=O)(=O)c2ccc(C#N)cc2)c1)c1c(O)c2c(oc1=O)CCCCCC2 (centres undefined) : not fulfilled
3) Cn1cnc(S(=O)(=O)Nc2cccc([C@@H](c3c(O)c4c(oc3=O)CCCCCC4)C3CC3)c2)c1 : fulfilled
4) O=c1c2c(oc(O)c1C(c1cccc(NS(=O)(=O)c3cccc([N+](=O)[O-])c3)c1)C1CC1)CCCCCC2 (centres undefined) : not fulfilled
5) O=c1c2c(oc(O)c1C(c1cccc(NS(=O)(=O)c3ccccn3)c1)C1CC1)CCCCCC2 (centres undefined) : not fulfilled
6) Cn1cnc(S(=O)(=O)Nc2cccc(C(c3c(O)c4c(oc3=O)CCCCCC4)C3CC3)c2)c1 (centres undefined) : fulfilled

Q. A record lists CCCC(c1cccc(NS(=O)(=O)c2cccc3cccnc23)c1)c1c(O)c2c(oc1=O)CCCCCC2 (centres undefined) . Is its EC50 below 3 µM?
A. not fulfilled

Q. A record lists CC(C)C(c1cccc(NS(=O)(=O)c2ccc(F)cc2)c1)c1c(O)c2c(oc1=O)CCCCCC2 (centres undefined) . Is its EC50 below 3 µM?
A. not fulfilled

Q. A record lists CC(C)C(c1cccc(NS(=O)(=O)c2cn(C)cn2)c1)c1c(O)c2c(oc1=O)CCCCCC2 (centres undefined) . Is its EC50 below 3 µM?
A. fulfilled
